Target: Cytochrome P450 2C9 (Homo sapiens) (UniProt P11712)
Sequence (P11712 whole entry, looked up): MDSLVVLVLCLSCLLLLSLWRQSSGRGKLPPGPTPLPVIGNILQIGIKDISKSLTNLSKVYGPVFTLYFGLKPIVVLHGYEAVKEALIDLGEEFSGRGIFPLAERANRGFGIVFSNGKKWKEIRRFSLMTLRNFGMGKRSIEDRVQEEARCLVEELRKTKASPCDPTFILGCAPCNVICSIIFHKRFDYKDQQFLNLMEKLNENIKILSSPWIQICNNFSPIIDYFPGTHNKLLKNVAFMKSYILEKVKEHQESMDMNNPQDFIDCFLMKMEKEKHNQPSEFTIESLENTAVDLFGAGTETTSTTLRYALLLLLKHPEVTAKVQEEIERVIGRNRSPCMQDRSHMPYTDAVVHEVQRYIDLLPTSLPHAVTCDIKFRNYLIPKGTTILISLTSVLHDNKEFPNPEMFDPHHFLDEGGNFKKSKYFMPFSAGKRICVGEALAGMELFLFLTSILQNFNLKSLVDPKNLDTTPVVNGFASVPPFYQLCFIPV
Test: qHTS Assay for Inhibitors and Substrates of Cytochrome P450 2C9 (AID 883); note: nearly all actives have a fitted effect of over 60% in size
Conditions: recombinant CYP2C9, luciferin-H luminescence, 60 min; series mostly up to 57.1 µM
Results filed as inconclusive are left out. Activity calls are given as the source filed them. Calls come from the whole dose curve; as a rule, active = well fitted inhibition curve with a large enough effect; inconclusive = small, poorly fitted or top-dose-only effect; inactive = no such curve, though single readings can be large or run the other way.
Labels: true (active), false (inactive)

COC(=O)Nc1nc2ccc(C(=O)c3cccs3)cc2[nH]1: false
N[C@@H](Cc1c[nH]c2ccc(O)cc12)C(=O)O: false
Cn1c(=O)c2c(ncn2C)n(C)c1=O: false
O=c1c(-c2ccc(O)cc2)coc2cc(O)cc(O)c12: false
Clc1ccc2c(c1)C(N1CCNCC1)=Nc1ccccc1O2: false
CCOC(=O)c1ncn2c1CN(C)C(=O)c1cc(F)ccc1-2: false
CN1C(C(=O)Nc2ccccn2)=C(O)c2ccccc2S1(=O)=O: true
CN(C)CCCN1c2ccccc2CCc2ccc(Cl)cc21: false

* * *

System: CP211
Assay: qHTS profiling for inhibitors of Plasmodium falciparum proliferation (AID 504749); note: nearly all actives have a fitted effect of over 60% in size
Conditions: P. falciparum in erythrocytes, SYBR Green DNA, 72 h; series mostly up to 28.7 µM
Records with an inconclusive call do not appear. The source made the active and inactive calls. Calls follow the shape of the dose curve; as a rule, active = well fitted inhibition curve with a large enough effect; inconclusive = small, poorly fitted or top-dose-only effect; inactive = flat fitted curve, though single readings scatter.
Labels: active, inactive

O=C(c1ccc(F)cc1)C1CCN(CCn2c(=O)[nH]c3ccccc3c2=O)CC1: inactive
CC#C[C@]1(O)CC[C@H]2[C@@H]3CCC4=CC(=O)CCC4=C3[C@@H](c3ccc(N(C)C)cc3)C[C@@]21C: active
CC12CC3CC(C)(C1)CC(N)(C3)C2: inactive
Cc1cn([C@H]2C[C@H](N=[N+]=[N-])[C@@H](CO)O2)c(=O)[nH]c1=O: inactive
Cn1c(=O)c2c(ncn2C)n(C)c1=O: inactive
NC(=O)NO: inactive
Nc1nnc(-c2cccc(Cl)c2Cl)c(N)n1: inactive
Nc1nc2c(ncn2COC(CO)CO)c(=O)[nH]1: inactive
Clc1ccc2c(c1)C(N1CCNCC1)=Nc1ccccc1O2: inactive
CC(=O)OCC(CCn1cnc2cnc(N)nc21)COC(C)=O: inactive
Cc1cnc(C(=O)NCCc2ccc(S(=O)(=O)NC(=O)NC3CCCCC3)cc2)cn1: inactive
NCCc1cnc[nH]1: inactive
CS(=O)(=O)CCNCc1ccc(-c2ccc3ncnc(Nc4ccc(OCc5cccc(F)c5)c(Cl)c4)c3c2)o1: inactive
NCCS(=O)(=O)O: inactive
CN(CCOc1ccc(NS(C)(=O)=O)cc1)CCc1ccc(NS(C)(=O)=O)cc1: inactive
CC(C)(C)C(=O)Oc1ccc(S(=O)(=O)Nc2ccccc2C(=O)NCC(=O)O)cc1: inactive
OCCN1CCN(CCCN2c3ccccc3Sc3ccc(C(F)(F)F)cc32)CC1: active
COc1cc2c(c(OC)c1OC)-c1ccc(OC)c(=O)cc1[C@@H](NC(C)=O)CC2: inactive
CN(Cc1cnc2nc(N)nc(N)c2n1)c1ccc(C(=O)N[C@@H](CCC(=O)O)C(=O)O)cc1: inactive
CC(C)NCC(O)COc1ccc(CCOCC2CC2)cc1 (configuration not stated): inactive
Cc1cc(C(C)(C)C)cc(C)c1CC1=NCCN1: inactive
CC(COc1ccccc1)N(CCCl)Cc1ccccc1 (configuration not stated): inactive
CC(C)C(=O)Nc1ccc([N+](=O)[O-])c(C(F)(F)F)c1: inactive
CC[N+](CC)(CC)CCOc1cccc(OCC[N+](CC)(CC)CC)c1OCC[N+](CC)(CC)CC: inactive
CC(C)NCC(O)c1ccc(O)c(O)c1 (configuration not stated): inactive
COc1ccccc1OCC(O)CN1CCN(CC(=O)Nc2c(C)cccc2C)CC1 (configuration not stated): inactive
Clc1ccc2nsnc2c1NC1=NCCN1: inactive
CN(C)CCC=C1c2ccccc2C=Cc2ccccc21: inactive
Cc1cc(C(C)(C)C)c(O)c(C)c1CC1=NCCN1: inactive
Cn1c(=O)c2[nH]cnc2n(C)c1=O: inactive
COc1ccccc1OCCNCC(O)COc1cccc2[nH]c3ccccc3c12 (configuration not stated): inactive
CC[C@@]1(O)C(=O)OCc2c1cc1n(c2=O)Cc2cc3c(CN(C)C)c(O)ccc3nc2-1: active
